# protocol text: Permeability of compound by PAMPA assay
# Type: ADME
# test context: read-out: permeability
parameter: Papp (×10⁻⁶ cm/s)
The answer is to be given in ×10⁻⁶ cm/s; state only the numeric part.

Query :: Consider the compound `CO[C@@H](c1ccc(C(C)C)cc1)c1nc2ccc(C(=O)O)cc2[nH]1` . State its measured Papp.
Result :: 0.031
